# IC50 annotations
- TEST SYSTEM: GRK2 (Homo sapiens, UniProt P25098)
- Sequence (P25098 1-689): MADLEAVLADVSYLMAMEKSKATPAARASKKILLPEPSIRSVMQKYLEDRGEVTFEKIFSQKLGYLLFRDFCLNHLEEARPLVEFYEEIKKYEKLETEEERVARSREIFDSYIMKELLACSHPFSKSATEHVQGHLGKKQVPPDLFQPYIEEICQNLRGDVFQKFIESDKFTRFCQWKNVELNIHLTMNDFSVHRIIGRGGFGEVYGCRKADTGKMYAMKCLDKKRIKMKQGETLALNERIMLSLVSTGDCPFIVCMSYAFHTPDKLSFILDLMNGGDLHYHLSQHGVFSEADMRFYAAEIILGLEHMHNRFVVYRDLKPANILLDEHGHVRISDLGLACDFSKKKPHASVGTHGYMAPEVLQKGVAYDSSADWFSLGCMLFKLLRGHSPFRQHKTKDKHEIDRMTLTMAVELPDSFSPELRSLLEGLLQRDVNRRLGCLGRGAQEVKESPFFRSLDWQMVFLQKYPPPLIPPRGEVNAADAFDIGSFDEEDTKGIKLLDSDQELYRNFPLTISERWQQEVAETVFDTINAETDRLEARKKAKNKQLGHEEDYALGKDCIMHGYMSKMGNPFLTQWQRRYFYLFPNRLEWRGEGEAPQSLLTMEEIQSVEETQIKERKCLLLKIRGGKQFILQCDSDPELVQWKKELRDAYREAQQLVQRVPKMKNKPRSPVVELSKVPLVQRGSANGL

Answered cases to consult:
MOLECULE	TEST SYSTEM	IC50
COc1ccc([C@@H](C)NC(=O)/C(C#N)=C/c2c[nH]c3ncc(-c4ccc(NC(C)=O)cc4)cc23)cc1OC	GRK2 (Homo sapiens, UniProt P25098)	1 to 10 µM
N#C/C(=C\c1c[nH]c2ncccc12)C(=O)NCc1cc(F)cc(F)c1	GRK2 (Homo sapiens, UniProt P25098)	0.5 to 1 µM
C[C@@H](NC(=O)/C(C#N)=C/c1c[nH]c2ncccc12)c1ccc(F)c(F)c1	GRK2 (Homo sapiens, UniProt P25098)	0.05 to 0.1 µM
COc1ccc([C@@H](C)NC(=O)/C(C#N)=C/c2c[nH]c3ncc(C4=CCCC4)cc23)cc1OC	GRK2 (Homo sapiens, UniProt P25098)	> 10 µM
COc1cc(C(C)NC(=O)/C=C/c2c[nH]c3ncc(-c4cnn(C)c4)cc23)ccc1[S+](C)[O-] (stereo not shown)	GRK2 (Homo sapiens, UniProt P25098)	> 10 µM
COc1ccc([C@@H](C)NC(=O)/C(C#N)=C/c2c[nH]c3ncc(-c4cnn(C5CCNCC5)c4)cc23)cc1OC	GRK2 (Homo sapiens, UniProt P25098)	1 to 10 µM

The record that follows has no IC50 shown yet.
query: Assign IC50 to the following record: `COc1ccc([C@@H](C)NC(=O)/C(C#N)=C/c2c[nH]c3ncc(Br)cc23)cc1OC`
result: > 10 µM
